tested on: SNB-19 CNS; experiment: NCI tumour cell line growth inhibition, 48 h
Measured TGI values are reported for all entries that follow.

{"Compound": "N#Cc1cc(-c2nc3ccc(F)cc3s2)ccc1N", "TGI": "> 100 µM"}

Note to self: TGI recorded for [Co+2].[O-]c1ccccc1C=NCc1ccccc1.[O-]c1ccccc1C=NCc1ccccc1 was > 100 µM

Note to self: TGI recorded for COc1cc2c(/C=C3/C(=O)Nc4ccc(O)cc43)c(Cl)[nH]c2cc1C was 22.3 µM

Note to self: TGI recorded for O=C(Nc1ccccc1Cl)c1cc(S(=O)(=O)Nc2n[nH]c(=O)n2-c2ccccc2)c(S)cc1Cl was > 100 µM

Note to self: TGI recorded for COC(=O)C1CCC(NC(=O)c2csc([C@@H](C[C@H](C(C)C)N(C)C(=O)[C@@H](NC(=O)[C@H]3CCCCN3C)C(C)C)OC(C)=O)n2)CC1 (stereo partly drawn) was > 33.3 µM

Note to self: TGI recorded for Cc1ccc(-c2cc3c(NC(=O)C4CC4)ncnc3o2)cc1 was > 25 µM

Note to self: TGI recorded for O=C1/C(=C/c2cccc([N+](=O)[O-])c2)N=C(c2ccccc2)N1c1nc2c(Cl)cc(Cl)cc2s1 was 65.4 µM

====

system: 786-0 renal; experiment: NCI tumour cell line growth inhibition, 48 h
Where a SMILES comes first, the peptide text is derived from it. [ ]: non-standard residue; d: D form. The star is where a group is joined. Phe(4-NO2) = N[CH](Cc1ccc([N+](=O)[O-])cc1)C(=O)O; Boc = CC(C)(C)OC(=O)*; OtBu = CC(C)(C)O*
Readout type: TGI

{"Compound": "NC1=NS(=O)(=O)Nc2nc(-c3ccccc3)c(-c3ccccc3)nc21", "TGI": "> 100 µM"}

Note to self: TGI recorded for Oc1ccccc1N=Cc1c(O)ccc2ccccc12 was 68.3 µM

Note to self: TGI recorded for Cc1nnc(N)nc1/C=C\c1ccc(N(C)C)cc1 was > 100 µM

Note to self: TGI recorded for CC1=C(C)C(=O)C2=C(OCCO2)C1=O was 44.6 µM

Note to self: TGI recorded for Cc1nc2c([nH]c1C)c(O)cc1c3c(nc12)C(=O)CCC3 was > 100 µM

Note to self: TGI recorded for CC(=O)NC(CCC(=O)OC(C)(C)C)C(=O)NC(CCC(=O)OC(C)(C)C)C(=O)NC(Cc1ccc([N+](=O)[O-])cc1)C(=O)NC(CCCCNC(=O)OC(C)(C)C)C(=O)NC(CCCCNC(=O)OC(C)(C)C)C(=O)NCC(=O)O (centres undefined) (Ac-E(OtBu)E(OtBu)[Phe(4-NO2)]K(Boc)K(Boc)G-OH; configuration not given here) was > 100 µM

====

system: PC-3 prostate; test: NCI tumour cell line growth inhibition, 48 h; in the data active means GI50 below about 0.43 µM; inactive means the rest
Select the matching outcome among label 1 (active), label 0 (inactive)

{"Molecule": "O=C(O[C@H]1CN[C@H](C#Cc2cc3ncnc(Nc4ccc5c(cnn5Cc5ccccc5)c4)c3s2)C1)N1CCOCC1", "Target or test system": "PC-3 prostate", "Class": "label 0"}
{"Molecule": "CCOC(=O)C1=C(N)CCC1C (centres undefined)", "Target or test system": "PC-3 prostate", "Class": "label 0"}
{"Molecule": "Clc1ccc(N2CCN(CCCN3CCN(c4cccc(Cl)c4)CC3)CC2)cc1", "Target or test system": "PC-3 prostate", "Class": "label 0"}
{"Molecule": "CN1C(=O)/C(=C/c2c(Cl)[nH]c3ccccc23)c2ccccc21", "Target or test system": "PC-3 prostate", "Class": "label 0"}
{"Molecule": "CN1CCN(c2ccc(N3Cc4ccccc4OC4=C3C(=O)c3c(O)ccc(O)c3C4=O)cn2)CC1", "Target or test system": "PC-3 prostate", "Class": "label 1"}
{"Molecule": "CCOc1ccc2nc(S/C(=C/C=C(C#N)C#N)c3ccc(Cl)cc3)sc2c1", "Target or test system": "PC-3 prostate", "Class": "label 0"}
{"Molecule": "CCc1c2c(nc3ccc(OC(=O)NCc4ccc(B5OC(C)(C)C(C)(C)O5)cc4)cc13)-c1cc3c(c(=O)n1C2)COC(=O)[C@]3(O)CC", "Target or test system": "PC-3 prostate", "Class": "label 1"}
{"Molecule": "Cc1ccc(S(=O)(=O)NC2=NCCN2C(=S)SN2CCn3c2nsc3=S)cc1", "Target or test system": "PC-3 prostate", "Class": "label 0"}

Record request — test call for CN1C(=O)N(C)C2C1NN=c1s/c(=C\c3ccccc3F)c(=O)n12 (centres undefined)
label 1

====

system: UACC-62 melanoma; experiment: NCI tumour cell line growth inhibition, 48 h
Readout type: GI50

{"Molecule": "CN1C(=O)/C(=C/c2c(Cl)[nH]c3ccccc23)c2ccccc21", "GI50": "37.4 µM"}
{"Molecule": "N#Cc1c(N)nc(NCc2ccccc2)c(C#N)c1-c1ccc(Cl)cc1", "GI50": "14.7 µM"}
{"Molecule": "Cn1c2c(c3ccc(-c4ccn[nH]4)cc3c1=O)C(=O)c1ccccc1-2", "GI50": "3.1 µM"}
{"Molecule": "O=C1/C(=C/c2ccc(O)c(O)c2)COc2ccc(-c3ccccc3)cc21", "GI50": "2.01 µM"}

Note to self: GI50 recorded for Clc1ccc(N2CCN(CCCN3CCN(c4cccc(Cl)c4)CC3)CC2)cc1 was 2.86 µM

Note to self: GI50 recorded for CC(C)OP(=O)(OC(C)C)C([CH2][Sn]([CH3])([CH3])[Cl])P(=O)(OC(C)C)OC(C)C was 14.1 µM

Note to self: GI50 recorded for CCOc1ccc2nc(S/C(=C/C=C(C#N)C#N)c3ccc(Cl)cc3)sc2c1 was 3.21 µM

Note to self: GI50 recorded for Cc1ccc(NCCN2CCCCC2)c2c(=O)c3ccccc3sc12 was 1.92 µM

Note to self: GI50 recorded for Cc1cc(C(=O)NC(C)(C)C)cc(C#Cc2ccc3c4c(oc3c2)C(C)(C)c2cc(NS(C)(=O)=O)ccc2C4=O)n1 was 1.4 µM

Note to self: GI50 recorded for C/C=C(\C)C(=O)O[C@H]1C=CC(=O)O[C@H]1CC[C@H](O)[C@H](C)O was 6.42 µM

Note to self: GI50 recorded for Cc1ccc(S(=O)(=O)NC2=NCCN2C(=S)SN2CCn3c2nsc3=S)cc1 was 15.1 µM

Note to self: GI50 recorded for COc1ccc2c(c1)OCC1c3cc(O)ccc3OC21 (stereo not given) was 35.9 µM

Note to self: GI50 recorded for O=C(O[C@H]1CN[C@H](C#Cc2cc3ncnc(Nc4ccc5c(cnn5Cc5ccccc5)c4)c3s2)C1)N1CCOCC1 was 5.74 µM

Note to self: GI50 recorded for CCC1=C(C)c2cc3[n-]c(cc4nc(c(C=O)c5[n-]c(cc1n2)c(C)c5CC)C(C)=C4CC)c(C)c3CC.[Ni+2] was > 100 µM

Note to self: GI50 recorded for COc1ccc2c(c1)CCC1C2CCC2(C)C3=CC(O)CCC3CC12 (stereo not given) was 12.5 µM

====

test system: OVCAR-3 ovarian; assay: NCI tumour cell line growth inhibition, 48 h
Measured TGI values are reported for all entries that follow.
Give your result in µM as a bare value.

{"Compound": "Nc1cc(N)c2nc(-c3ccccc3)c(Sc3ccc(Cl)c(Cl)c3)nc2c1", "Target or test system": "OVCAR-3 ovarian", "Unit tag": "µM", "Reported value": 46.4}
{"Compound": "C=CS(=O)(=O)c1c2cc(OC)ccc2nc2ccc(OC)cc12", "Target or test system": "OVCAR-3 ovarian", "Unit tag": "µM", "Reported value": 15.8}
{"Compound": "O=c1cc(-c2ccccc2)[nH]c2ccc(N3CCCCC3)cc12", "Target or test system": "OVCAR-3 ovarian", "Unit tag": "µM", "Reported value": 2.89}

Record for COC(=O)C1CCC(NC(=O)c2csc([C@@H](C[C@H](C(C)C)N(C)C(=O)[C@@H](NC(=O)[C@H]3CCCCN3C)C(C)C)OC(C)=O)n2)CC1 (stereo partly specified) under target or system OVCAR-3 ovarian: TGI reported as 0.0294

Record for O=c1ssc2ncccc12 under target or system OVCAR-3 ovarian: TGI reported as 35.6

Record for CC1=c2c(oc3cc(O)c(Nc4c(C)cc(O)cc4O)c(C)c23)=CC(=O)C1=Nc1c(C)cc(O)cc1O under target or system OVCAR-3 ovarian: TGI reported as 55.3

Record for CC(C)OP(=O)(OC(C)C)C([CH2][Sn]([CH3])([CH3])[Cl])P(=O)(OC(C)C)OC(C)C under target or system OVCAR-3 ovarian: TGI reported as 72.5

Record for N/C(=N/N=C/c1cc(Br)cc(Br)c1O)NO under target or system OVCAR-3 ovarian: TGI reported as 13.1

Record for COc1ccc2nccc(NCCCN3CCN(CCCNc4ccnc5ccc(OC)cc45)CC3)c2c1 under target or system OVCAR-3 ovarian: TGI reported as 7.73
